This collection of values is drawn from patent US20110300138A1.

# Assayed System: T1, human TSH receptor (full length), coated on tubes (human, UniProt P16473 22-764)
# T1 construct: TSHR coated tubes as described in WO2004/050708A2; Exact preparation on the tubes is not detailed here; also called thyroid stimulating hormone receptor
# Measurement Notes: competition with 125I-K1-18 IgG on TSHR coated tubes; 3 µg/mL, diluted in HBD serum pool
Inhibition of binding (%) values for the binders below.
State the answer as a number, implicitly in %.

Look over these answered cases.
Binder	Measurement Name	Observed Value
K1-70 IgG (antibody, V domains shown) VH: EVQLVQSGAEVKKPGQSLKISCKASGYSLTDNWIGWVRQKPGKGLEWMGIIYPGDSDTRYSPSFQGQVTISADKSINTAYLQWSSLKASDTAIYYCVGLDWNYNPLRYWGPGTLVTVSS VL: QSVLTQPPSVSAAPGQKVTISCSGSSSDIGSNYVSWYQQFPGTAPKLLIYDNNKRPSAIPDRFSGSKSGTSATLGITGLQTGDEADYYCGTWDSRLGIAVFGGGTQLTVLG	Inhibition of binding (%)	94.1
K1-70 Fab (Fab, V domains shown) VH: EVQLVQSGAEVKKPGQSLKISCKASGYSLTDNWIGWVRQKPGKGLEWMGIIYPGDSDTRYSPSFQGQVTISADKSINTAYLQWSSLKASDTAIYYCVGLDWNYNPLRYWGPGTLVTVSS VL: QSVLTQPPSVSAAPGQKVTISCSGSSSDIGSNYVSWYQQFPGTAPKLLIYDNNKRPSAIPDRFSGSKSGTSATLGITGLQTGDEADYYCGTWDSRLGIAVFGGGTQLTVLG	Inhibition of binding (%)	92.8
K1-18 IgG (antibody, V domains shown) VH: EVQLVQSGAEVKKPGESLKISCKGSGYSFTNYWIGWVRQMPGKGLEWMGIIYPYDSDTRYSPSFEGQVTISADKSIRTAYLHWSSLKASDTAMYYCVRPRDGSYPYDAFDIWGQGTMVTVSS VL: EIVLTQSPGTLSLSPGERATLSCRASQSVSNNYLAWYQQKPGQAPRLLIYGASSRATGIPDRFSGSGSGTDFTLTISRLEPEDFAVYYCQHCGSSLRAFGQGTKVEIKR	Inhibition of binding (%)	94

Turning to the following binder.
Return reported Inhibition of binding (%); argument: K1-18 Fab (Fab, V domains shown) VH: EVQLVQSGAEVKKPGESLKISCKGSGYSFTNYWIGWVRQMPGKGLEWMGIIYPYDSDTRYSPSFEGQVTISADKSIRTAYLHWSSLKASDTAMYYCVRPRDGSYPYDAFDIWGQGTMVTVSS VL: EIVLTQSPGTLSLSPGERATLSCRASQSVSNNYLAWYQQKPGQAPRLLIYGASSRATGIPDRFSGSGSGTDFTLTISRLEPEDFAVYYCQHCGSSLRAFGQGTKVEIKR
83.4
